Data origin: patent US8053553B2

# experimental.target: furin (Homo sapiens, UniProt P09958)
# Construct: made in house; host or cells: Drosophila S2 cells (Invitrogen expression system)
# Sequence (P09958 108-794 limits assumed): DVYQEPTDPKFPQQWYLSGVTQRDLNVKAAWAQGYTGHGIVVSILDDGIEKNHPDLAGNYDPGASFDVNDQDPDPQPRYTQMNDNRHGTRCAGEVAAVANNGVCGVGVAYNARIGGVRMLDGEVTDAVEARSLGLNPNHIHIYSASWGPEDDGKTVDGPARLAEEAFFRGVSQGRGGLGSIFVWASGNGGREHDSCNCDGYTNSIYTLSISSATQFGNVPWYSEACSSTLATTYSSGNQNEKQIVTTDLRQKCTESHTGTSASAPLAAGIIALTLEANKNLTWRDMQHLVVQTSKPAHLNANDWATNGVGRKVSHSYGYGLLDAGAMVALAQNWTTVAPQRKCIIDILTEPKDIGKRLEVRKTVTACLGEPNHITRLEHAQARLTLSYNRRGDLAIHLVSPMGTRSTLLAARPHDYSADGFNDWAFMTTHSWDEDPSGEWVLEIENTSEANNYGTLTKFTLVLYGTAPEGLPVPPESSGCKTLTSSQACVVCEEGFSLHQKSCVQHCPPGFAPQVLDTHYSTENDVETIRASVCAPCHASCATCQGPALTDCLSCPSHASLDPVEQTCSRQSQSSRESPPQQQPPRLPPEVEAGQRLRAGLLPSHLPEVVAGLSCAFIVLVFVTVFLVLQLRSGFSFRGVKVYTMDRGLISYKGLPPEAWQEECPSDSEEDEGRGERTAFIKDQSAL
# assay.remarks: biochemical
# condition.set: furin, Pyr-RTKR-AMC substrate; alanine scanning mutagenesis of the H5 furin cleavage sequence (Table 2); read-out: Ki
pKi: −log10 of the molar value. Residues, ends and D or L forms follow the SMILES beside them.
Quick reference: pKi of the listed items.

| compound | experimental.target | pKi |
| --- | --- | --- |
| CC(C)[C@H](NC(=O)[C@H](C)NC(=O)[C@H](C)NC(=O)[C@H](CCCCN)NC(=O)[C@H](CCCNC(=N)N)NC(=O)[C@H](CCCNC(=N)N)NC(=O)[C@H](CCCNC(=N)N)NC(=O)[C@H](CCC(=O)O)NC(=O)[C@H](CCCNC(=N)N)NC(=O)[C@@H]1CCCN1C(=O)[C@@H](N)[C@@H](C)O)C(N)=O (H-TPRERRRKAAV-NH2) | furin (Homo sapiens, UniProt P09958) | < 7.00 |
| C[C@H](N)C(=O)N1CCC[C@H]1C(=O)N[C@@H](CCCNC(=N)N)C(=O)N[C@@H](CCC(=O)O)C(=O)N[C@@H](CCCNC(=N)N)C(=O)N[C@@H](CCCNC(=N)N)C(=O)N[C@@H](CCCNC(=N)N)C(=O)N[C@@H](CCCCN)C(=O)N[C@@H](CCCCN)C(=O)N[C@@H](CCCNC(=N)N)C(N)=O (H-APRERRRKKR-NH2) | furin (Homo sapiens, UniProt P09958) | < 7.00 |
| C[C@H](NC(=O)[C@H](CCCCN)NC(=O)[C@H](CCCCN)NC(=O)[C@H](CCCNC(=N)N)NC(=O)[C@H](CCCNC(=N)N)NC(=O)[C@H](CCCNC(=N)N)NC(=O)[C@H](CCC(=O)O)NC(=O)[C@H](CCCNC(=N)N)NC(=O)[C@@H]1CCCN1C(=O)[C@@H](N)[C@@H](C)O)C(N)=O (H-TPRERRRKKA-NH2) | furin (Homo sapiens, UniProt P09958) | < 7.00 |

* * *

Quick reference: Ki of the listed items.
# experimental.target: furin (Homo sapiens)
# Construct: made in house; host or cells: Drosophila S2 cells (Invitrogen expression system)
# assay.remarks: biochemical
# condition.set: furin, Pyr-RTKR-AMC substrate; alanine scanning mutagenesis of the H5 furin cleavage sequence (Table 2); read-out: Ki
Residues, ends and D or L forms follow the SMILES beside them.

| molecule | experimental.target | Ki |
| --- | --- | --- |
| C[C@H](NC(=O)[C@@H](N)[C@@H](C)O)C(=O)N[C@@H](CCCNC(=N)N)C(=O)N[C@@H](CCC(=O)O)C(=O)N[C@@H](CCCNC(=N)N)C(=O)N[C@@H](CCCNC(=N)N)C(=O)N[C@@H](CCCNC(=N)N)C(=O)N[C@@H](CCCCN)C(=O)N[C@@H](CCCCN)C(=O)N[C@@H](CCCNC(=N)N)C(=O)N[C@@H](CO)C(N)=O (H-TARERRRKKRS-NH2) | furin (Homo sapiens) | > 100 nM |
| CC(C)[C@H](NC(=O)[C@H](CCCNC(=N)N)NC(=O)[C@H](CCCCN)NC(=O)[C@H](CCCCN)NC(=O)[C@H](CCCNC(=N)N)NC(=O)[C@H](CCCNC(=N)N)NC(=O)[C@H](CCCNC(=N)N)NC(=O)[C@H](CCC(=O)O)NC(=O)[C@H](CCCNC(=N)N)NC(=O)[C@@H]1CCCN1C(=O)[C@@H](N)[C@@H](C)O)C(N)=O (H-TPRERRRKKRV-NH2) | furin (Homo sapiens) | > 100 nM |
